Tested on: Lefty1
Test Details: Lefty1 protein binding to printed compounds – biochemical, small-molecule microarray, 635/667 nm fluorescence, primary screen (AID 1139)
Particulars: fluorescence 635/667, higher = more signal
Reported Property: composite z-score
The response must contain the number and no unit.

Answered cases to consult:
Molecule	Numeric Value
Cc1ccc(S[C@]2(C(=O)NCCCN(C)C)CC(=O)N(C(C)C)[C@@H]2c2ccc(CO)cc2I)cc1	0.0228
COc1ccccc1CN1C(=O)c2ccccc2[C@](Cc2ccccc2I)(C(=O)NC2CC2)[C@@H]1c1ccc(CO)cc1	1.16
Cc1ccc(S[C@]2(C(=O)NCCN3CCOCC3)CC(=O)N(C3CCCCC3)[C@@H]2c2ccc(CO)cc2)cc1	-0.299

Request: Record COC(=O)[C@@]1(Cc2ccc(OC)cc2)[C@H]2c3cc(C(=O)N(C)C)n(CCSCCO)c3C[C@H]2CN1C(=O)c1ccccc1 : what is its composite z-score with Lefty1?
Result: -1.03

Request: // same read-out, input: CC1CC/C=C\[C@H]2OC34C=CCN(Cn5nnc6ccccc65)C(=O)[C@H]3N(CCCO)C(=O)[C@@H]4C2C(=O)O1 (stereo partly drawn)
Result: -0.146

Request: Proceed to O=C(CS)NCCCCCCNC(=O)[C@H]1C[C@H]2C(=O)N3CCC[C@H]3C(=O)N2[C@H]1c1ccc(O)cc1
Result: 1.16

Request: Would you kindly repeat that for CC(C)(C)OC(=O)CC[C@@]1(C(N)=O)N=C(c2ccc(OCCCO)cc2)O[C@@H]1c1ccccc1N=[N+]=[N-] ?
Result: 0.512

Request: Also check CC(C)(C)OC(=O)CC[C@]1(C(=O)NCC(O)CO)N=C(c2ccc(OCCCO)cc2)O[C@H]1c1ccccc1CN=[N+]=[N-] (stereo partly drawn)
Result: -0.637

Value source: PubChem BioAssay
